assay: yeast display, Sf9 membrane polyspecificity reagent, FACS + sequencing; frameworks hold sequencing errors

residue-string | polyreactivity (PSR sort gate)
QLQLVESGGGLVQAGGSLRLSCAASGYTFTSYTKGWYRQAPGKEWELVAAITWTGGRTYYADSVKGRFTISRDNAKNTVYLQMNSLKPEDTAVYFCAGSWRKVDYWGQGTQVTVSS | high polyreactivity
QVQLVESGGGLVQAGGSLRLSCAASGRILIRKAMGRSRQAPGKERELVAAINRGGGSTYYADSVKGRFTISRDNAKNTVYLQMNSLKPEDTAVYYCAADRKAGYSRVDGDYWGQGTQVTVSS | low polyreactivity
QVQLVESGGGLVQAGGSLRLSCAASGRTFERYAMGWYRQAPGKERELVAAISSGGSTNYADSVKGRFTISRDNAKNTVYLQMNSLKPEDTAVYYCNVDWAVKDPSYVSQGEGDYWGQGTQVTVSS | low polyreactivity
QVQLVESGVGLVQAVGSHRLSCAASGFTIINNDMGWYRQAPGKEREFVAAISDSDGTTYYADSVKGRFSISRDNAKNTVYLQMNSLKPEDTAVYYCAADVVPTWEDEYWGQGTQVTVSS | low polyreactivity
QVQLVESGGGLVQAGGSLRLSCAASGSTFRYYAKGWYRQAPGKERELVAAIAAGSNTNYADSVKGRFTISRDNAKNTVYLQMNSVKPEDTAVFYCAVASYARVQYEYWGQGTQVTVNS | low polyreactivity
QVQLVESGGGLVQAGGSLRLSCAASGRTFGYYAMGWYRPAPGKERELVAAITSSSSTNYADSVKGRFTISRDNAKNTVYLQMNSLKPEDTAVYYCAAYGYYRSGYRALEGYWGQGTQVTVSS | high polyreactivity
QVQLVESGGGLVQAGGSLRLSCAASGYNFRQYAMGWYRQATGKEREFVAAISQTGGSTYYADSVKGRFTISRDNANNTVYLQMNSLKPEDTAVYYCAARYRGQRYRKLDYWGQGTQVTVSS | high polyreactivity
QVQLVESGGVLVQAGGSLRLSCAASGRIFPTYAMGWYRQAPGKERELVAAISQRGGSTYYADSVKGRFTISRDNAKNTVYLQMNSLKPEDTAVYYCAASYYRQSGEYDYWGQGTQVTVSS | low polyreactivity
QVQLVESGGGLVQAGGSLRLSCAASGRTFWYYTMGWYRQAPGKERELVAAISSGGTTNYADSVKGRFTISRDNAKNTVYLQMNSLKPEDTAVYYCAAEANSGDGYYWGQGTQVTVSS | high polyreactivity
QVQLVESGGGLVQAGGSLRLSCAASGFTFPVYVMGWYRQAPGKERELVSAISGGGGTYYADSVKGRFTISRDNAKNTVYLQMNSLKPEDTAVYYCAADYRTYVYVYGFRHFDYWGQGTQVTVSS | low polyreactivity
QVQLVESGGGLVQAGGSLRLSCAASGIIFRQYAMGWSRQEPGKERELVAGITGTGSTYYADSVKGRFTISRDNAKNTVYLQLNSLKPEETAVYYCATRSFRVFYPYPYDYWGQGTQVTVSS | high polyreactivity

###

assay: yeast display, Sf9 membrane polyspecificity reagent, FACS + sequencing; frameworks hold sequencing errors
value-kind: polyreactivity (PSR sort gate)

residue-string | value-kind | readout-value
QVQLVESGGGLVQAGGSLRLSCAASGLTFYYNTMGWYRQAPGKERELVAAINWSGGRTYYADSVKGRFTISRDNAKNTVYLQMNSLKPEDTAVYYCNAASSRALGYAYDYWGQGTQVTVSS | polyreactivity (PSR sort gate) | high polyreactivity
QVQLVESGGGLVQAGGSLRLSCAASGSTFYTYAMGWYRQAPGKERELVAAITSSGTTNYADSVKGRFTISRDNAKNTVYLQMNSLKPEDTAVYYCAKRSYGGTLHYAFDSWGQGTQVTVSS | polyreactivity (PSR sort gate) | low polyreactivity
QVQLVESGGGLVQAGGSLRLSCAASGSTFAYYAMGWYRQAPGKERELVAAITSSGGSTYYADSVKGRFTISRDKAKNTVYLQMNSLKPEDTAVYYCNARYRRKSWRPFDYWGQGTQVTVSS | polyreactivity (PSR sort gate) | high polyreactivity
QVQLVESGGGLVQAGGSLRLSCAASGYTFYANAMGWYRQAPGKEREFVASITWSGGSTYYADSVKGRFTISRDNAKNTVYLQMNSLKPEDTAVYYCADESWFKYDYWGQGTQVTVSS | polyreactivity (PSR sort gate) | low polyreactivity
PVQLVESGGGLVQAGGSLRLSCAASGFIFSWYAMGWYRPAPGKDRELVAAISRSGGSTYADSVKGRFTIARDNAKNTVYLQMNSLKPEDTAVYYCAAGSYWSYWDSRYDYWGQGTQVTVSS | polyreactivity (PSR sort gate) | low polyreactivity
